Taken from patent US11339144B2.

Quick reference for pIC50 among some molecules
target_under_test: HA-GST-Rheb (GTP-γ-S loaded) activating mTORC1 (Homo sapiens (Human))
measurement_protocol: Rheb-dependent in vitro kinase assay (Rheb-IVK; LanthaScreen or Western readout)
Type: biochemical
applied_conditions: Rheb-dependent in vitro kinase assay; read-out: IVK IC50
pIC50: −log10 of the molar value.

Report pIC50 for OCc1cc2c(Oc3ccccc3)cccc2[nH]1 [I-287] please. < 4.00

Same lookup for COC(=O)c1ccc(Sc2cccc3[nH]ccc23)cc1 [I-188] , please. < 4.00

Same lookup for OCc1nc2cc(Cl)c(OCc3ccccc3)cc2n1CC(F)(F)F [I-458] , please. < 4.00

* * *

target_under_test: HA-GST-Rheb (GTP-γ-S loaded) activating mTORC1 (Homo sapiens (Human), UniProt Q15382)
Sequence (Q15382 1-181): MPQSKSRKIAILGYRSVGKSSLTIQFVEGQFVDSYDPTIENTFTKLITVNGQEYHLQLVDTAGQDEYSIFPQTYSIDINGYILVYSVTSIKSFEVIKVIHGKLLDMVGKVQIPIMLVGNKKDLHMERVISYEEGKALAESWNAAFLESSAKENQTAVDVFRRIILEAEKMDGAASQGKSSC
measurement_protocol: Rheb-dependent in vitro kinase assay (Rheb-IVK; LanthaScreen or Western readout)
Assay type: biochemical
applied_conditions: Rheb-dependent in vitro kinase assay; read-out: IVK IC50
reported_property: IC50

Examples with their reported IC50 follow.
Report IC50 for Cn1c(CO)nc2c(OC[C@H]3CCCC[C@@H]3O)c(Cl)c(Cl)cc21 (racemic) [I-387] please. 100 to 300 µM

Same lookup for Clc1cc2nc(-c3ccc(-c4ccncc4)cc3)[nH]c2cc1Cl [I-372] , please. > 100 µM

Same lookup for Brc1cc(Oc2ccccc2)cc2c1ccn2Cc1ccc(-c2nn[nH]n2)cc1 [I-220] , please. < 10 µM

Same lookup for OCc1nc2ccc(Oc3ccccc3)cc2n1Cc1nc[nH]n1 [I-397] , please. > 100 µM

Same lookup for Clc1cc2nc(-c3cccnc3)[nH]c2c(Cl)c1Cl [I-355] , please. > 100 µM

---
Report IC50 for CN1CCC(CNC(=O)c2cc3c(Sc4ccc(Cl)cc4Cl)cc(Cl)c(Cl)c3[nH]2)CC1 [I-35] please. < 10 µM

Same lookup for Cn1ccc(-c2cc(Oc3ccccc3)cc3[nH]c(CO)cc23)n1 [I-213] , please. > 100 µM

Same lookup for CCCn1c(CO)nc2cc(Cl)c(OCc3ccccc3)cc21 [I-480] , please. > 100 µM

Same lookup for N#CCc1nc2c(Oc3ccccc3)c(Cl)ccc2[nH]1 [I-441] , please. > 100 µM

Same lookup for CN1CCC(NC(=O)c2cc3c(Sc4ccc(Cl)cc4)cc(Cl)cc3[nH]2)CC1 [I-80] , please. > 100 µM

* * *

target_under_test: HA-GST-Rheb (GTP-γ-S loaded) activating mTORC1 (Homo sapiens (Human))
measurement_protocol: Rheb-dependent in vitro kinase assay (Rheb-IVK; LanthaScreen or Western readout)
Format: biochemical
applied_conditions: Rheb-dependent in vitro kinase assay; read-out: IVK IC50
reported_property: IC50

Examples with their reported IC50 follow.
Report IC50 for O=C(O)c1cc2nc(-c3ccnc4[nH]ccc34)[nH]c2c(Cl)c1Cl [I-327] please. > 100 µM

Same lookup for O=C(O)c1ccc(CCn2c(C(=O)O)cc3c(Br)cc(Oc4ccccc4)cc32)cc1 [I-36] , please. > 100 µM

Same lookup for O=C(O)CCc1cc2c(Oc3ccccc3)c(Cl)ccc2[nH]1 [I-253] , please. > 100 µM

---
Report IC50 for Clc1ccc(Oc2cccc3[nH]ccc23)c(Cl)c1 [I-255, 4-(2,4-Dichlorophenoxy)-1H-indole] please. 10 to 100 µM

Same lookup for OCc1nc2c(OC[C@H]3CCCC[C@H]3O)c(Cl)c(Cl)cc2[nH]1 (single isomer, unassigned) [I-389] , please. > 100 µM

Same lookup for O=C(O)c1cc2c(Sc3ccc(Cl)cc3Cl)cc(Cl)cc2n1Cc1ccc(-c2cccc(CO)c2)cc1 [I-72] , please. < 10 µM

Same lookup for CN(C)C(=O)c1ccc(Cn2c(C(=O)O)cc3c(C#N)cc(Sc4ccc(Cl)c(Cl)c4)cc32)cc1 [I-7] , please. < 10 µM

Same lookup for OCc1cc2c(F)cc(Oc3ccccc3)cc2[nH]1 [I-249] , please. 10 to 100 µM

* * *

target_under_test: HA-GST-Rheb (GTP-γ-S loaded) activating mTORC1 (Homo sapiens (Human), UniProt Q15382)
measurement_protocol: Rheb-dependent in vitro kinase assay (Rheb-IVK; LanthaScreen or Western readout)
Format: biochemical
applied_conditions: Rheb-dependent in vitro kinase assay; read-out: IVK IC50
pIC50: −log10 of the molar value.
reported_property: pIC50

Any idea what pIC50 came out for O=C1CCC(CNC(=O)c2cc3c(Sc4ccc(Cl)cc4)cc(Cl)cc3[nH]2)N1 (stereo not shown) [I-147] on HA-GST-Rheb (GTP-γ-S loaded) activating mTORC1 (Homo sapiens (Human), UniProt Q15382)? < 4.00

Same lookup for CC(C)(C)OC(=O)c1ccc(Cn2c(CO)cc3c(Br)cc(Oc4ccccc4)cc32)cc1 [I-151] , please. < 4.00

---
Any idea what pIC50 came out for Cn1ccc2c(NC3CCCNC3)cccc21 (stereo not shown) [I-298] on HA-GST-Rheb (GTP-γ-S loaded) activating mTORC1 (Homo sapiens (Human), UniProt Q15382)? < 4.00

Same lookup for OCc1nc2c(OCC3CCC(O)CC3)c(Cl)c(Cl)cc2[nH]1 (stereo not shown) [I-399] , please. 4.00 to 5.00

Same lookup for CN1CCCN(C(=O)c2cc3c(Sc4ccc(Cl)cc4)cc(Cl)cc3[nH]2)CC1 [I-83] , please. < 4.00

Same lookup for Clc1cc2nc(-c3ccnc(N4CCNCC4)c3)[nH]c2cc1Cl [I-346] , please. < 4.00

Same lookup for Nc1cccc(COc2c(Cl)c(Cl)cc3nc(CO)[nH]c23)n1 [I-464] , please. < 4.00

Same lookup for CN1CCC(CCNC(=O)c2cc3c(Br)cc(Sc4ccc(Cl)c(Cl)c4)cc3[nH]2)CC1 [I-97] , please. < 4.00

Same lookup for COc1cccc(CCNC(=O)c2cc3c(Sc4ccc(Cl)cc4)cc(Cl)cc3[nH]2)c1 [I-144] , please. < 4.00

Same lookup for CN1CCCN(c2ccc(NC(=O)c3cc4c(Sc5ccc(Cl)cc5Cl)cc(Cl)c(Cl)c4[nH]3)cc2F)CC1 [I-32] , please. > 5.00

Same lookup for Nc1ccc(N2CCN(C(=O)c3cc4c(Sc5ccc(Cl)cc5Cl)cc(Cl)cc4[nH]3)CC2)cc1F [I-92] , please. 4.00 to 5.00

Same lookup for Clc1c(Br)cc2nc(-c3ccncc3)[nH]c2c1Cl [I-357] , please. < 4.00

* * *

target_under_test: HA-GST-Rheb (GTP-γ-S loaded) activating mTORC1 (Homo sapiens (Human))
measurement_protocol: Rheb-dependent in vitro kinase assay (Rheb-IVK; LanthaScreen or Western readout)
Assay type: biochemical
applied_conditions: Rheb-dependent in vitro kinase assay; read-out: IVK IC50
pIC50: −log10 of the molar value.
reported_property: pIC50

Report pIC50 for `Clc1cccc(Cl)c1Oc1cccc2[nH]ccc12` please. < 4.00

Same lookup for `OCc1cc2c(Oc3ccccc3F)cccc2[nH]1` , please. 3.10 to 3.52

Same lookup for [O-][S+](c1cccc(Cl)c1)c1cccc2[nH]ccc12 (centres unmarked) , please. < 4.00

Same lookup for `Clc1cc2nc(-c3cnon3)n(Cc3ccc(-c4nn[nH]n4)cc3)c2cc1Cl` , please. 3.10 to 3.52

Same lookup for OCc1nc2c(OCC3COCC3O)c(Cl)c(Cl)cc2[nH]1 (centres unmarked) , please. < 4.00

* * *

Quick reference for pIC50 among some compounds
target_under_test: UniProt:Q15382
measurement_protocol: Rheb-dependent in vitro kinase assay (Rheb-IVK; LanthaScreen or Western readout)
Assay type: biochemical
applied_conditions: Rheb-dependent in vitro kinase assay; read-out: IVK IC50
pIC50: −log10 of the molar value.

Examples with their reported pIC50 follow.
Report pIC50 for Nc1nonc1-c1nc2cc(Cl)c(Cl)cc2n1Cc1ccccc1 [I-491] please. < 4.00

Same lookup for CCn1cnc2cc(OCc3ccccc3)c(Cl)cc21 [I-434] , please. 3.52 to 4.00

Same lookup for Cn1c(CO)nc2cc(Cl)c(OCc3ccccc3)cc21 [I-426] , please. < 4.00

Same lookup for OCc1cc2c(Sc3ccc(Cl)cc3)cc(Cl)cc2[nH]1 [I-187] , please. > 5.00

Same lookup for CC(C)(C)OC(=O)c1ccc(Cn2c(C(=O)O)cc3c(Cl)cc(Sc4ccc(Cl)c(Cl)c4)cc32)cc1 [I-95] , please. 4.00 to 5.00

Same lookup for O=C(O)c1ccc(Sc2cccc3[nH]ccc23)cc1 [I-192] , please. < 4.00

Same lookup for Cn1c(CO)cc2c(OCc3ccccc3)cc(Cl)cc21 [I-292] , please. < 4.00

Same lookup for OCc1nc2cc(Cl)c(OCc3ccccc3)cc2n1Cc1nc[nH]n1 [I-402] , please. < 4.00

---
Report pIC50 for COc1cccc(Sc2cccc3[nH]ccc23)c1 [I-195] please. < 4.00

Same lookup for O=C(O)c1cc2c(SCc3ccc(Cl)cc3)cc(SCc3ccc(Cl)cc3)cc2[nH]1 [I-94] , please. > 5.00

Same lookup for CN1CCN(c2ccc(-c3nc4cc(Cl)c(Cl)cc4[nH]3)cc2)CC1 [I-366] , please. 3.52 to 4.00

Same lookup for CN1CCC(N(C)C(=O)c2ccc(Cn3c(C(=O)O)cc4c(Br)cc(Oc5ccccc5)cc43)cc2)C1 (stereo not drawn) [I-46] , please. < 5.52
